B1: Caulobacter ParB omega fusion; a variant is named by its letters at X, in order, B8GW30 (parent)
chain: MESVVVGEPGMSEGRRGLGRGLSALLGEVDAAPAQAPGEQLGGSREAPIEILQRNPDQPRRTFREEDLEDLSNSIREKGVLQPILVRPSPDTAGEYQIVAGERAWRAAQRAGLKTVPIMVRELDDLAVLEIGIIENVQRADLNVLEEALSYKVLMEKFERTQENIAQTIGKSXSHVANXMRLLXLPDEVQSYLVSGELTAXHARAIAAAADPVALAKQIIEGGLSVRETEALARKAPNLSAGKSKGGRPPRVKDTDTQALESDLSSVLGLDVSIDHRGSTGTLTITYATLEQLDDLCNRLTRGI

variants of: B1; assay: one-hybrid fitness for binding parS DNA (scaled: cognate 1, non-cognate 0); higher = stronger binding; details: with parS DNA site
Whole data set: some 81,000 sequences, median “one-hybrid fitness for binding parS DNA” near -0.17, cut for the highest 2% near 0.51. This excerpt belongs to a sample that is enriched for the highest values.
Please go through the items and note down their one-hybrid fitness for binding parS DNA.
Answers are plain numbers.

For orientation, consider the following solved cases.
1. RVYA | 0.64
2. RAYA | 0.602
3. RIFH | 0.213
4. RACA | 0.609
5. RAQN | 0.436
6. RYKM | 0.369
7. RQAF | 0.25
8. RIFA | 0.529

Each variant below has a recorded value; state its one-hybrid fitness for binding parS DNA.
1. RVQA
2. RVMA
3. RKCN

OUTPUT:
1. 0.597
2. 0.545
3. 0.302

Each variant below has a recorded value; state its one-hybrid fitness for binding parS DNA.
1. RAIA
2. RIFC
3. RTQH

OUTPUT:
[0.461, 0.96, 0.332]

Each variant below has a recorded value; state its one-hybrid fitness for binding parS DNA.
1. RICN
2. RQAC
3. RAQS
4. RQFY
5. RYVC

OUTPUT:
1: 0.447; 2: 0.947; 3: 0.998; 4: 0.398; 5: 0.907
